This listing pairs compounds with measured IC50.
Assay target: human TLR8 (Homo sapiens, UniProt Q9NR97)
Sequence (Q9NR97 27-1041): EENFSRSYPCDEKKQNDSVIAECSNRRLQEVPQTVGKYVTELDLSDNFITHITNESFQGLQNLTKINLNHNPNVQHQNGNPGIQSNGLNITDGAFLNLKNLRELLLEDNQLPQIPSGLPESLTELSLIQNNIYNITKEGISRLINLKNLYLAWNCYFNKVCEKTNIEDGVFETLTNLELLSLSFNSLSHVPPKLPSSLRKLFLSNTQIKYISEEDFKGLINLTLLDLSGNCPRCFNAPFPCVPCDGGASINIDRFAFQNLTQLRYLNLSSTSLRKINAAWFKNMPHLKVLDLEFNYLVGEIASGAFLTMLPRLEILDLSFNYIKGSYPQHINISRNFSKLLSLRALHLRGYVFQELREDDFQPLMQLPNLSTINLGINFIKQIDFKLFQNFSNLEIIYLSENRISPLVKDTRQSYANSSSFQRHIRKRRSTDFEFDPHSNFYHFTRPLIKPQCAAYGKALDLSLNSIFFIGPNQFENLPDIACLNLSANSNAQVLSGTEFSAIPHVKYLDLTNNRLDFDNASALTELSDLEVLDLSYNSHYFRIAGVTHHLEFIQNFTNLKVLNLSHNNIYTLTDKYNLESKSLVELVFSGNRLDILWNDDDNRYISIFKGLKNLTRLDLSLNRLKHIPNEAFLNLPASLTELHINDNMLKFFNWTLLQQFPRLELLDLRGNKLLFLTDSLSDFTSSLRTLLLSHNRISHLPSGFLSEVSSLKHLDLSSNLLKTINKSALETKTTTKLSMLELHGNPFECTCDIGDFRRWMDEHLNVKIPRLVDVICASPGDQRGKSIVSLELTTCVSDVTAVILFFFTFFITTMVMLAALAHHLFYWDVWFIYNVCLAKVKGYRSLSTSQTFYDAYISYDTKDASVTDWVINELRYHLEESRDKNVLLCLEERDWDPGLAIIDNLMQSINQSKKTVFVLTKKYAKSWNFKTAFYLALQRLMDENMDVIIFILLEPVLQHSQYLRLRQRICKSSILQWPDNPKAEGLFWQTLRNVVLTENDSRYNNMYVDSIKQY
Experiment notes: HEK293-Blue-hTLR-8 cells assay (SEAP reporter, R848 stimulation)
Assay conditions: HEK293-Blue-hTLR8 cells, R848, 20 hrs; read-out: HEK/hTLR8 IC50
Measured property: IC50

>>> observed_result("Cc1cc(N2Cc3cnc(N4CCNCC4)cc3[C@@H](C)C2)c2cnn(C)c2n1")
"2 nM"
>>> observed_result("C[C@H]1CN(c2ccnc3c2cnn3C)Cc2ccc(N3CCN(C(=O)C4CCCN4)CC3)cc21 (stereo partly shown)")
"6 nM"
>>> observed_result("C[C@H]1CN(c2ccnc3c2cnn3C)Cc2ccc(OC[C@H]3CNCCN3)cc21")
"4 nM"
>>> observed_result("CO[C@H]1CN(c2ccc3c(n2)[C@@H](C)CN(c2cc(C)nc4c2cnn4C)C3)CC[C@@H]1N")
"1 nM"

----------
This listing pairs molecules with measured Clearance of Human microsome.
Experiment notes: Human microsome stability assay
Type: in vitro ADME
Assay conditions: 1 μM test compound, 0.5 mg/mL liver microsomal protein, 37° C., pH 7.4
Measured property: Clearance of Human microsome (mL/min/kg)

>>> observed_result("C[C@H]1CN(c2ccnc3c2cnn3C)Cc2ccc(N3C[C@@H]4CCNCC4C3=O)cc21 (relative stereo)")
8.2
>>> observed_result("C[C@H]1CN(c2ccnc3c2cnn3C)Cc2ccc(N3CC4(CCNC4)OC3=O)cc21 (stereo partly shown)")
8.4
>>> observed_result("CO[C@@H]1CN(c2ccc3c(n2)[C@@H](C)CN(c2cc(C)nc4c2cnn4C)C3)C[C@H]1N")
6.2
>>> observed_result("C[C@H]1CN(c2ccnc3c2cnn3C)Cc2ccc(OC[C@H]3CNCCN3C)cc21")
6.2
>>> observed_result("C[C@H]1CN(c2ccnc3c2cnn3C)Cc2ccc(N3CCNCC3)nc21")
6.8
>>> observed_result("Cc1cc(N2Cc3ccc(N4CCC(N)CC4)nc3[C@@H](C)C2)c2cnn(C)c2n1")
9.0
>>> observed_result("Cc1cc(N2Cc3cnc(N4CC[C@@H](N)[C@H](F)C4)cc3[C@@H](C)C2)c2cnn(C)c2n1")
6.2
>>> observed_result("Cc1cc(N2Cc3cnc(OCCN4CCNCC4)cc3[C@@H](C)C2)c2cnn(C)c2n1")
6.2
>>> observed_result("CCn1ncc2c(N3Cc4ccc(N5CCNCC5)cc4[C@@H](C)C3)ccnc21")
6.2
>>> observed_result("Cc1cc(N2Cc3ccc(N4C[C@@H](N)[C@H](O)C4)cc3[C@@H](C)C2)c2cnn(C)c2n1")
6.2
>>> observed_result("C[C@H]1CN(c2ccnc3c2cnn3C)Cc2ccc(N3CCC(O)(CN(C)C)CC3)cc21")
6.2
>>> observed_result("C[C@H]1CN(c2ccnc3c2cnn3C)Cc2ccc(N3CC4(CNC4)CC3=O)cc21")
10.1
>>> observed_result("Cc1cc(N2CCc3c(c(C)nn3CC34CCC(N(C)C5CCC5)(CC3)CC4)C2)c2cnn(C)c2n1 [Example N79, reference compound]")
18.2
>>> observed_result("CO[C@@H]1CN(c2ccc3c(c2)[C@@H](C)CN(c2cc(C)nc4c2cnn4C)C3)C[C@H]1N")
7.5
>>> observed_result("C[C@H]1CN(c2ccnc3c2cnn3C)Cc2ccc(N3CC4(CCNCC4)CC3=O)cc21")
8.2
>>> observed_result("Cc1cc(N2Cc3cnc(N4CC5(CNCCO5)C4)cc3[C@@H](C)C2)c2cnn(C)c2n1")
8.0

----------
Experiment notes: Single dose pharmacokinetics (PK) study in male Wister-Han rats
Type: in vivo, rat
Assay conditions: rat, plasma, IV 2 mg/kg
YES means recorded clearance is 6 mL/min/kg or above; NO means it is below 6 mL/min/kg.

>>> qualitative_label("CO[C@@H]1CN(c2ccc3c(n2)[C@@H](C)CN(c2cc(C)nc4c2cnn4C)C3)C[C@H]1N [Example 63]")
"NO"
>>> qualitative_label("C[C@H]1CN(c2ccnc3c2cnn3C)Cc2ccc(OC[C@@H]3CNCCN3)cc21 [Example 19]")
"YES"
>>> qualitative_label("CO[C@@H]1CN(c2ccc3c(c2)[C@@H](C)CN(c2cc(C)nc4c2cnn4C)C3)C[C@H]1N [Example 23]")
"NO"
>>> qualitative_label("C[C@H]1CN(c2ccnc3c2cnn3C)Cc2ccc(N3CCNCC3)cc21 [Example 1]")
"YES"

----------
Assay target: hERG channel (Homo sapiens)
Construct: expressed in transfected cells; host or cells: CHO (CHOhERG)
Experiment notes: hERG channel inhibition assay (patch-clamp, CHOhERG cells)
Type: cell-based
Assay conditions: human, CHO cells stably expressing hERG (CHOhERG); CHOhERG cells, whole-cell patch-clamp
This listing pairs compounds with measured IC20.
Measured property: IC20

>>> observed_result("C[C@H]1CN(c2ccnc3c2cnn3C)Cc2ccc(N3CCNCC3)cc21")
"6.4 µM"
>>> observed_result("C[C@H]1CN(c2ccnc3c2cnn3C)Cc2ccc(N3C[C@@H]4CNCCN4C3=O)cc21")
"> 10 µM"
>>> observed_result("C[C@H]1CN(c2ccnc3c2cnn3C)Cc2ccc(OCCN3CCNCC3)cc21")
"> 10 µM"
>>> observed_result("C[C@H]1CN(c2ccnc3c2cnn3C)Cc2ccc(OC[C@H]3CNCCN3)cc21")
"> 10 µM"

----------
Experiment notes: Single dose pharmacokinetics (PK) study in male Wister-Han rats
Format: in vivo, rat
Assay conditions: rat, IV 2 mg/kg, plasma, read-out: IV AUC0-last
This listing pairs molecules with measured log10 AUC(0-t).
Measured property: log10 AUC(0-t) (log10 of the value in ng·h/mL)

>>> observed_result("CO[C@@H]1CN(c2ccc3c(c2)[C@@H](C)CN(c2ccnc4c2cnn4C)C3)C[C@H]1N")
3.74
>>> observed_result("CO[C@@H]1CN(c2ccc3c(c2)[C@@H](C)CN(c2cc(C)nc4c2cnn4C)C3)C[C@H]1N")
3.88
>>> observed_result("CO[C@@H]1CN(c2ccc3c(n2)[C@@H](C)CN(c2cc(C)nc4c2cnn4C)C3)C[C@H]1N")
4.91
>>> observed_result("C[C@H]1CN(c2ccnc3c2cnn3C)Cc2ccc(OC[C@@H]3CNCCN3)cc21")
2.95
>>> observed_result("C[C@H]1CN(c2ccnc3c2cnn3C)Cc2ccc(N3CCNCC3)cc21")
3.11

----------
This listing pairs compounds with measured hERG IC20/TLR9 IC50.
Assay target: hERG channel (Homo sapiens)
Construct: expressed in transfected cells; host or cells: CHO (CHOhERG)
Experiment notes: hERG channel inhibition assay (patch-clamp, CHOhERG cells)
Type: cell-based
Assay conditions: safety ratio, hERG IC20 over HEK/hTLR9 IC50
Measured property: hERG IC20/TLR9 IC50

>>> observed_result("C[C@H]1CN(c2ccnc3c2cnn3C)Cc2ccc(OC[C@@H]3CNCCN3C)cc21")
">42.7"
>>> observed_result("Cc1cc(N2Cc3cnc(O[C@@H]4C[C@H]5CNCCN5C4)cc3[C@@H](C)C2)c2cnn(C)c2n1")
">69.4"
>>> observed_result("CO[C@@H]1CN(c2ccc3c(c2)[C@@H](C)CN(c2ccnc4c2cnn4C)C3)C[C@H]1N")
25.9
>>> observed_result("Cc1cc(N2Cc3ccc(OC[C@H]4CNCCN4)cc3[C@@H](C)C2)c2cnn(C)c2n1")
73.9
>>> observed_result("C[C@H]1CN(c2ccnc3c2cnn3C)Cc2ccc(N3C[C@@]4(CCNC4)CC3=O)cc21 (single isomer, unassigned)")
">47.6"
>>> observed_result("C[C@H]1CN(c2ccnc3c2cnn3C)Cc2ccc(N3CC4(CCNCC4)CC3=O)cc21")
">158.7"
>>> observed_result("C[C@H]1CN(c2ccnc3c2cnn3C)Cc2ccc(O[C@@H]3C[C@H]4CNCCN4C3)cc21")
">25.1"
>>> observed_result("Cc1cc(N2Cc3cnc(N4CC[C@@H](N)[C@H](F)C4)cc3[C@@H](C)C2)c2cnn(C)c2n1")
">137.0"

----------
Assay target: hERG channel (Homo sapiens, UniProt Q12809)
Construct: expressed in transfected cells; host or cells: CHO (CHOhERG)
Sequence (Q12809 whole entry): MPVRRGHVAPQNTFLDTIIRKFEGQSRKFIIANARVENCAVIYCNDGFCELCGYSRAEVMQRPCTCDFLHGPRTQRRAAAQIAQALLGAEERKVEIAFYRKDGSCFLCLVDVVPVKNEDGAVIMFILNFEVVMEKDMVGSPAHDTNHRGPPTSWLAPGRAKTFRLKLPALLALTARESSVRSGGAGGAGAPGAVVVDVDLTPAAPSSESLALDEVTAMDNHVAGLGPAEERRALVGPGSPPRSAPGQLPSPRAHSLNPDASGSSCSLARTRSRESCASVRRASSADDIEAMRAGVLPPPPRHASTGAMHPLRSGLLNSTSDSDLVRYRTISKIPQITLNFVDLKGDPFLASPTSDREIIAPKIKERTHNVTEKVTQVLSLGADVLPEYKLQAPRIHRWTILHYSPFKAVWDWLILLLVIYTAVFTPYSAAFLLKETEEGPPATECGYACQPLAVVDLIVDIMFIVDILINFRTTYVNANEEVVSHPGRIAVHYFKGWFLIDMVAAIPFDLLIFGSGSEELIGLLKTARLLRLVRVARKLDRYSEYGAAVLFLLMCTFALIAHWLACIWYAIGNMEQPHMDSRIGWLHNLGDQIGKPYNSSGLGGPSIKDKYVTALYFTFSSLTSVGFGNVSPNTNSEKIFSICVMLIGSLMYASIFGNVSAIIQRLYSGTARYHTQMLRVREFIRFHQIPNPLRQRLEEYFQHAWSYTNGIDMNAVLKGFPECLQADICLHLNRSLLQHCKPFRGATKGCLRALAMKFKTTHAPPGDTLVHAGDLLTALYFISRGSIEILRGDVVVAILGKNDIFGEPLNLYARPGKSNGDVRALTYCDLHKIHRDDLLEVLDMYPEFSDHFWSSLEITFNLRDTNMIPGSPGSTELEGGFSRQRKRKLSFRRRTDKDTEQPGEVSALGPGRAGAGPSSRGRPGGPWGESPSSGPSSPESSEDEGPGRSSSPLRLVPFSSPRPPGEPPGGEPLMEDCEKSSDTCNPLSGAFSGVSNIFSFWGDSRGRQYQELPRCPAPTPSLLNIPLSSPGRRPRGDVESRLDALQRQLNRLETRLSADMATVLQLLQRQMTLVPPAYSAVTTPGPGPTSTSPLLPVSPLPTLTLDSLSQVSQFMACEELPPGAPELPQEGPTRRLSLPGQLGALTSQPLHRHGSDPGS
Experiment notes: hERG channel inhibition assay (patch-clamp, CHOhERG cells)
Assay type: cell-based
Assay conditions: safety ratio, hERG IC20 over HEK/hTLR9 IC50
This listing pairs compounds with measured hERG IC20/TLR9 IC50.
Measured property: hERG IC20/TLR9 IC50

>>> observed_result("CO[C@H]1CN(c2cc3c(cn2)CN(c2cc(C)nc4c2cnn4C)C[C@@H]3C)CC[C@@H]1N")
60.0
>>> observed_result("Cc1cc(N2Cc3ccc(OC[C@@H]4CNCCN4)cc3[C@@H](C)C2)c2cnn(C)c2n1")
81.0
>>> observed_result("C[C@H]1CN(c2ccnc3c2cnn3C)Cc2ccc(OC[C@@H]3CNCCN3)cc21")
62.4
>>> observed_result("C[C@H]1CN(c2ccnc3c2cnn3C)Cc2ccc(OC3CN(C4CCNCC4)C3)cc21")
108.5
